Assay: passive permeability, PAMPA, ADME assay (AID 1508612)
Conditions: pH 7.4, 30.0 min, 50.0 µM
Papp class ranges: interval 1 (below 30 ×10⁻⁶ cm/s), interval 2 (30 ×10⁻⁶ cm/s to below 300 ×10⁻⁶ cm/s), interval 3 (300 ×10⁻⁶ cm/s or more)

1. O=C(NC(c1ccccc1)c1cc(Cl)c2cccnc2c1O)c1cccnc1 (stereo not given)    interval 2
2. CNC(=O)c1cccc(-c2cnc(Nc3cccc(C(F)(F)F)c3)c3c2CCO3)c1    interval 2
3. CC(C)c1c(-c2ccccc2)nc2c(C#N)c[nH]n2c1=O    interval 1
4. Cc1ccccc1S(=O)(=O)N1CCCC(CCC(=O)NCCN(C)C2CCCCC2)C1 (stereo not given)    interval 3
5. Cc1ccc(OCCn2c(CCNC(=O)c3ccc(Cl)cc3)nc3ccccc32)cc1    interval 3
6. COC(=O)c1c(NC(=O)Cc2coc3cc(C)ccc23)sc2c1CCC2    interval 1
7. O=c1cc(-c2ccc(O)c(O)c2)oc2cc(O)cc(O)c12    interval 2
8. COc1cc(-c2nc(Nc3ccc(F)c(F)c3)c3ccccc3n2)cc(OC)n1    interval 1
9. Cc1onc(-c2ccc(F)cc2)c1COc1ccc(C(=O)N2CCS(=O)(=O)CC2)cn1    interval 2

The measured values listed here are drawn from PubChem BioAssay AID1508612.
